Please provide measured CC50 for the entries that follow.
- System: IGROV-ET
- method: SRB colorimetric assay of cell growth and viability, IGROV-ET
- Format: cell-based, human
- assay context: IGROV-ET; 48 hours exposure; read-out: LC50 IGROV-ET
Where a SMILES comes first, the peptide text is derived from it. Bridges are numbered along the chain shown (N, C = ends). [ ]: non-standard residue; d: D form. The star is where a group is joined. 2Nal = N[C@@H](Cc1ccc2ccccc2c1)C(=O)O; d(aIle) = CC[C@H](C)[C@@H](N)C(=O)O; d(aThr) = C[C@@H](O)[C@@H](N)C(=O)O; Hexanoyl(5-Me) = CC(C)CCCC(=O)*; Orn = NCCC[C@H](N)C(=O)O; Dhb = C/C=C(\N)C(=O)O
Answer in µM, number only, no unit symbol.

Q. State its CC50 on IGROV-ET: C/C=C1\NC(=O)[C@H](Cc2ccc(Cl)cc2)NC(=O)[C@@H](C(C)C)NC(=O)[C@@H]([C@@H](C)CC)NC(=O)[C@H](NC(=O)[C@H](NC(=O)[C@H](CCCN)NC(=O)[C@H]2CCCN2C(=O)[C@H](NC(=O)[C@@H](NC(=O)[C@@H](NC(=O)[C@H](NC(=O)CCCC(C)C)C(C)C)[C@@H](C)O)C(C)C)C(C)C)[C@@H](C)CC)[C@@H](C)OC(=O)[C@H](C(C)C)NC1=O [Compound 83, [Phe(4-Cl)^3]-KF]
A. 0.587

Q. And what about the molecule C/C=C1\NC(=O)[C@H](Cc2ccc3ccccc3c2)NC(=O)[C@@H](C(C)C)NC(=O)[C@@H]([C@@H](C)CC)NC(=O)[C@H](NC(=O)[C@H](NC(=O)[C@H](CCCN)NC(=O)[C@H]2CCCN2C(=O)[C@H](NC(=O)[C@@H](NC(=O)[C@@H](NC(=O)[C@H](NC(=O)CCCC(C)C)C(C)C)[C@@H](C)O)C(C)C)C(C)C)[C@@H](C)CC)[C@@H](C)OC(=O)[C@H](C(C)C)NC1=O [Compound 85, [Nal^3]-KF] ({Hexanoyl(5-Me)}-[dV]TV[dV][dP][Orn][d(aIle)][d(aThr)][d(aIle)][dV][2Nal][Dhb]V; ester 8-C) ?
A. 0.425

Q. And what about the molecule C/C=C1\NC(=O)[C@H](Cc2ccccc2)NC(=O)[C@@H](C(C)C)NC(=O)[C@@H]([C@@H](C)CC)NC(=O)[C@H](NC(=O)[C@H](NC(=O)[C@H](CCCN)NC(=O)[C@H]2CCCN2C(=O)[C@H](NC(=O)[C@@H](NC(=O)[C@H](CC(C)C)NC(=O)[C@H](NC(=O)CCCC(C)C)C(C)C)C(C)C)C(C)C)[C@@H](C)CC)[C@@H](C)OC(=O)[C@H](C(C)C)NC1=O [Compound 113, [Leu^12]-KF] ({Hexanoyl(5-Me)}-[dV]LV[dV][dP][Orn][d(aIle)][d(aThr)][d(aIle)][dV]F[Dhb]V; ester 8-C) ?
A. 6.62

Q. And what about the molecule C/C=C1\NC(=O)[C@H](Cc2ccccc2)NC(=O)[C@@H](C(C)C)NC(=O)[C@@H]([C@@H](C)CC)NC(=O)[C@H](NC(=O)[C@H](NC(=O)[C@H](CCCN)NC(=O)[C@H]2CCCN2C(=O)[C@H](NC(=O)[C@@H](NC(=O)[C@H](C)NC(=O)[C@H](NC(=O)CCCC(C)C)C(C)C)C(C)C)C(C)C)[C@@H](C)CC)[C@@H](C)OC(=O)[C@H](C(C)C)NC1=O [Compound 112, [Ala^12]-KF] ({Hexanoyl(5-Me)}-[dV]AV[dV][dP][Orn][d(aIle)][d(aThr)][d(aIle)][dV]F[Dhb]V; ester 8-C) ?
A. 6.91

---

- Tested on: SK-MEL-28
- method: SRB colorimetric assay of cell growth and viability, SK-MEL-28
- Type: cell-based, human
- assay context: 48 hours exposure; read-out: LC50 MEL-28
attribute measured: CC50 (µM)
Answer in µM, number only, no unit symbol.

Q. Quick one: CC50 for C/C=C1\NC(=O)[C@H](Cc2ccccc2)NC(=O)[C@@H](C(C)C)NC(=O)[C@@H]([C@@H](C)CC)NC(=O)[C@H](NC(=O)[C@H](NC(=O)[C@H](CCCN)NC(=O)[C@H]2CCCN2C(=O)[C@H](NC(=O)[C@@H](NC(=O)[C@@H](NC(=O)[C@@H](CCC(N)=O)NC(=O)CCCC(C)C)[C@@H](C)O)C(C)C)C(C)C)[C@@H](C)CC)[C@@H](C)OC(=O)[C@H](C(C)C)NC1=O [Compound 40, [D-Gln^13]-KF] ?
A. 4.2

---

- System: PANC-1
- method: SRB colorimetric assay of cell growth and viability, PANC-1
- Type: cell-based, human
- assay context: 48 hours exposure; read-out: LC50 PANC-1
Where a SMILES comes first, the peptide text is derived from it. Bridges are numbered along the chain shown (N, C = ends). [ ]: non-standard residue; d: D form. The star is where a group is joined. d(aIle) = CC[C@H](C)[C@@H](N)C(=O)O; d(aThr) = C[C@@H](O)[C@@H](N)C(=O)O; Hexanoyl(5-Me) = CC(C)CCCC(=O)*; Orn = NCCC[C@H](N)C(=O)O; Dhb = C/C=C(\N)C(=O)O
attribute measured: CC50 (µM)
Answer in µM, number only, no unit symbol.

Q. Quick one: CC50 for C/C=C1\NC(=O)[C@H](Cc2ccccc2)NC(=O)[C@@H](C(C)C)NC(=O)[C@@H]([C@@H](C)CC)NC(=O)[C@H](NC(=O)[C@H](NC(=O)[C@H](CCCN)NC(=O)[C@H]2CCCN2C(=O)[C@H](NC(=O)[C@H](CCC(N)=O)NC(=O)[C@@H](NC(=O)[C@H](NC(=O)CCCC(C)C)C(C)C)[C@@H](C)O)C(C)C)[C@@H](C)CC)[C@@H](C)OC(=O)[C@H](C(C)C)NC1=O [Compound 48, [Gln^11]-KF] ({Hexanoyl(5-Me)}-[dV]TQ[dV][dP][Orn][d(aIle)][d(aThr)][d(aIle)][dV]F[Dhb]V; ester 8-C) ?
A. 6.64

---

- System: HT-29
- method: SRB colorimetric assay of cell growth and viability, HT-29
- Type: cell-based, human
- assay context: 48 hours exposure; read-out: LC50 HT-29
Where a SMILES comes first, the peptide text is derived from it. Bridges are numbered along the chain shown (N, C = ends). [ ]: non-standard residue; d: D form. The star is where a group is joined. d(aIle) = CC[C@H](C)[C@@H](N)C(=O)O; d(aThr) = C[C@@H](O)[C@@H](N)C(=O)O; Hexanoyl(5-Me) = CC(C)CCCC(=O)*; Orn = NCCC[C@H](N)C(=O)O; Dhb = C/C=C(\N)C(=O)O
attribute measured: CC50 (µM)
Answer in µM, number only, no unit symbol.

Q. Quick one: CC50 for C/C=C1\NC(=O)[C@H](Cc2ccccc2)NC(=O)[C@@H](C(C)C)NC(=O)[C@@H]([C@@H](C)CC)NC(=O)[C@H](NC(=O)[C@H](NC(=O)[C@H](CCCN)NC(=O)[C@H]2CCCN2C(=O)[C@H](NC(=O)[C@@H](NC(=O)[C@H](C)NC(=O)CCCC(C)C)C(C)C)C(C)C)[C@@H](C)CC)[C@@H](C)OC(=O)[C@H](C(C)C)NC1=O [Compound 52, [Ala^12, noD-Val^13]-KF] ({Hexanoyl(5-Me)}-AV[dV][dP][Orn][d(aIle)][d(aThr)][d(aIle)][dV]F[Dhb]V; ester 7-C) ?
A. 7.41

---

Please provide measured TGI HT-29 for the entries that follow.
- System: HT-29
- method: SRB colorimetric assay of cell growth and viability, HT-29
- Assay type: cell-based, human
- assay context: 48 hours exposure
Where a SMILES comes first, the peptide text is derived from it. Bridges are numbered along the chain shown (N, C = ends). [ ]: non-standard residue; d: D form. The star is where a group is joined. d(aIle) = CC[C@H](C)[C@@H](N)C(=O)O; d(aThr) = C[C@@H](O)[C@@H](N)C(=O)O; Hexanoyl(5-Me) = CC(C)CCCC(=O)*; Orn = NCCC[C@H](N)C(=O)O; Dhb = C/C=C(\N)C(=O)O
Answer in Molar, number only, no unit symbol.

Q. Quick one: TGI HT-29 for C/C=C1\NC(=O)[C@H](Cc2ccccc2)NC(=O)[C@@H](C(C)C)NC(=O)[C@@H]([C@@H](C)CC)NC(=O)[C@H](NC(=O)[C@H](NC(=O)[C@H](CCCN)NC(=O)[C@H]2CCCN2C(=O)[C@H](NC(=O)[C@H](C)NC(=O)[C@@H](NC(=O)[C@H](NC(=O)CCCC(C)C)C(C)C)[C@@H](C)O)C(C)C)[C@@H](C)CC)[C@@H](C)OC(=O)[C@H](C(C)C)NC1=O [Compound 44, [Ala^11]-KF] ({Hexanoyl(5-Me)}-[dV]TA[dV][dP][Orn][d(aIle)][d(aThr)][d(aIle)][dV]F[Dhb]V; ester 8-C) ?
A. 2.61E−06

Q. And what about the compound C/C=C1\NC(=O)[C@H](Cc2ccccc2)NC(=O)[C@@H](C(C)C)NC(=O)[C@@H]([C@@H](C)CC)NC(=O)[C@H](NC(=O)[C@H](NC(=O)[C@H](CCCN)NC(=O)[C@H]2CCCN2C(=O)[C@H](NC(=O)[C@@H](NC(=O)[C@@H](NC(=O)[C@@H](NC(=O)CCCC(C)C)C(C)C)[C@@H](C)O)C(C)C)C(C)C)[C@@H](C)CC)[C@@H](C)OC(=O)[C@H](C(C)C)NC1=O [Compound 38, [Val^13]-KF] ?
A. 2.12E−06
